pIC50 values by entry
measured.on: human recombinant COX-2 (Homo sapiens, UniProt P35354)
assay.details: biochemical
assay.setup: human recombinant COX-2; EIA; sigmoidal concentration-inhibition curves; concentrations 0.03 μM to 300 µM
pIC50: −log10 of the molar value.

- given.smiles: "COc1cc(-c2nc(C)c(C(C)=O)s2)cc(OC)c1OC"
  pIC50: 3.67
- given.smiles: "COc1ccc(-c2csc(-c3cc(OC)c(OC)c(OC)c3)n2)cc1"
  pIC50: 4.12
- given.smiles: "CCOC(=O)c1sc(-c2cc(OC)c(OC)c(OC)c2)nc1C"
  pIC50: 3.56

* * *

measured.on: human recombinant COX-2 (Homo sapiens, UniProt P35354)
Sequence (P35354 18-604): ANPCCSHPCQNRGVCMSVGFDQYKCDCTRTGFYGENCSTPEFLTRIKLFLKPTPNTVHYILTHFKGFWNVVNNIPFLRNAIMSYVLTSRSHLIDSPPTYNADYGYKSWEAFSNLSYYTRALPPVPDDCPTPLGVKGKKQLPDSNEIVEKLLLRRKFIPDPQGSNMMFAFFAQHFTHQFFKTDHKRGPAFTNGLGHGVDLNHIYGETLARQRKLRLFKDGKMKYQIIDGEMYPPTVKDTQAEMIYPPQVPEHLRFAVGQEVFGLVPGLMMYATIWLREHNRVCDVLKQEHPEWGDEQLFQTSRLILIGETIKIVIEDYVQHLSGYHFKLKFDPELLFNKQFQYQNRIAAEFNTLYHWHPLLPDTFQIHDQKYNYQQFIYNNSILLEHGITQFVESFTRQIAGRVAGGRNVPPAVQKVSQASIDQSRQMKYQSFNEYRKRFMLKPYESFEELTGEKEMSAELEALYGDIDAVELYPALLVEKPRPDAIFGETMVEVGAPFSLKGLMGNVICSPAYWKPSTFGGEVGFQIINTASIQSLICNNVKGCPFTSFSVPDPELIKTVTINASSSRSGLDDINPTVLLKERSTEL
assay.details: biochemical
assay.setup: human recombinant COX-2; EIA; sigmoidal concentration-inhibition curves; concentrations 0.03 μM to 300 µM
metric: IC50 (µM)

- molecule: "COc1cc(-c2nc(-c3ccc(C#N)cc3)cs2)cc(OC)c1OC [A5]"
  metric: "IC50"
  measurement.units: "µM"
  value.operator: "="
  numeric.value: 148
- molecule: "COc1cc(-c2nc(-c3ccccc3)c(C)s2)cc(OC)c1OC [A1]"
  metric: "IC50"
  measurement.units: "µM"
  value.operator: ">"
  numeric.value: 300
- molecule: "CCOC(=O)Cc1csc(-c2cc(OC)c(OC)c(OC)c2)n1 [A13]"
  metric: "IC50"
  measurement.units: "µM"
  value.operator: "="
  numeric.value: 229
- molecule: "COc1cc(-c2nc(-c3ccc(C(N)=O)c(O)c3)cs2)cc(OC)c1OC [A7]"
  metric: "IC50"
  measurement.units: "µM"
  value.operator: "="
  numeric.value: 106
- molecule: "COc1cc(-c2nc(-c3ccc([N+](=O)[O-])cc3)cs2)cc(OC)c1OC [A3]"
  metric: "IC50"
  measurement.units: "µM"
  value.operator: "="
  numeric.value: 25.5
- molecule: "COc1cc(-c2nc(-c3sc(-c4ccccc4)nc3C)cs2)cc(OC)c1OC [A9]"
  metric: "IC50"
  measurement.units: "µM"
  value.operator: "="
  numeric.value: 70.9
- molecule: "COc1cc(-c2nc(-c3ccc(Cl)cc3)cs2)cc(OC)c1OC [A8]"
  metric: "IC50"
  measurement.units: "µM"
  value.operator: "="
  numeric.value: 25.6
- molecule: "COc1cc(-c2nc(CCl)cs2)cc(OC)c1OC [A10]"
  metric: "IC50"
  measurement.units: "µM"
  value.operator: "="
  numeric.value: 107
- molecule: "COc1cc(-c2nc(-c3cccc4ccccc34)cs2)cc(OC)c1OC [A6]"
  metric: "IC50"
  measurement.units: "µM"
  value.operator: "="
  numeric.value: 28.9
- molecule: "COc1cc(-c2nc(-c3ccccc3)cs2)cc(OC)c1OC [A2]"
  metric: "IC50"
  measurement.units: "µM"
  value.operator: "="
  numeric.value: 23.3

* * *

The next entries give measured IC50 for ovine COX-1 (Ovis aries, UniProt P05979).
metric: IC50 (µM)

- given.smiles: "COc1cc(-c2nc(-c3ccccc3)c(C)s2)cc(OC)c1OC"
  numeric.value: 140
- given.smiles: "COc1cc(-c2nc(-c3cccc4ccccc34)cs2)cc(OC)c1OC"
  numeric.value: 26.9
- given.smiles: "COc1cc(-c2nc(-c3sc(-c4ccccc4)nc3C)cs2)cc(OC)c1OC"
  numeric.value: 83.2
- given.smiles: "COc1cc(-c2nc(-c3ccc(Cl)cc3)cs2)cc(OC)c1OC"
  numeric.value: 31.5
- given.smiles: "COc1cc(-c2nc(-c3ccc([N+](=O)[O-])cc3)cs2)cc(OC)c1OC"
  numeric.value: 236
- given.smiles: "COc1cc(-c2nc(C)c(C(C)=O)s2)cc(OC)c1OC"
  numeric.value: 76
- given.smiles: "COc1ccc(-c2csc(-c3cc(OC)c(OC)c(OC)c3)n2)cc1"
  numeric.value: 50.4
- given.smiles: "COc1cc(-c2nc(-c3ccc(C#N)cc3)cs2)cc(OC)c1OC"
  numeric.value: 73.3
- given.smiles: "COc1cc(-c2nc(-c3ccccc3)cs2)cc(OC)c1OC"
  numeric.value: 34.5
- given.smiles: "CCOC(=O)Cc1csc(-c2cc(OC)c(OC)c(OC)c2)n1"
  numeric.value: 109
- given.smiles: "COc1cc(-c2nc(-c3ccc(C(N)=O)c(O)c3)cs2)cc(OC)c1OC"
  numeric.value: 54.7

* * *

measured.on: human recombinant COX-2 (Homo sapiens, UniProt P35354)
Construct: purchased Cayman Chemical 560131
assay.details: biochemical
Assay type: biochemical
assay.setup: ratio of ovine COX-1 to human recombinant COX-2 IC50
metric: Selectivity index SI = IC50 COX-1/IC50 COX-2

- given.smiles: "COc1cc(-c2nc(-c3ccc(C#N)cc3)cs2)cc(OC)c1OC"
  numeric.value: 0.49
- given.smiles: "COc1ccc(-c2csc(-c3cc(OC)c(OC)c(OC)c3)n2)cc1"
  numeric.value: 0.67
- given.smiles: "COc1cc(-c2nc(-c3ccc(C(N)=O)c(O)c3)cs2)cc(OC)c1OC"
  numeric.value: 0.51
- given.smiles: "CCOC(=O)c1sc(-c2cc(OC)c(OC)c(OC)c2)nc1C"
  numeric.value: 1.5
- given.smiles: "COc1cc(-c2nc(-c3sc(-c4ccccc4)nc3C)cs2)cc(OC)c1OC"
  numeric.value: 1.17

* * *

measured.on: human recombinant COX-2 (Homo sapiens, UniProt P35354)
Construct: purchased Cayman Chemical 560131
assay.details: biochemical
Type: biochemical
assay.setup: ratio of ovine COX-1 to human recombinant COX-2 IC50
Labelling: Selectivity index SI = IC50 COX-1/IC50 COX-2 reported below 1 becomes condition met; at or above becomes condition not met.

- compound: "COc1cc(-c2nc(C)c(C(C)=O)s2)cc(OC)c1OC [A11]"
  assigned.class: "condition met"
- compound: "COc1cc(-c2nc(-c3cccc4ccccc34)cs2)cc(OC)c1OC [A6]"
  assigned.class: "condition met"
- compound: "COc1cc(-c2nc(-c3ccc(Cl)cc3)cs2)cc(OC)c1OC [A8]"
  assigned.class: "condition not met"
- compound: "COc1cc(-c2nc(-c3ccccc3)cs2)cc(OC)c1OC [A2]"
  assigned.class: "condition not met"
- compound: "CCOC(=O)Cc1csc(-c2cc(OC)c(OC)c(OC)c2)n1 [A13]"
  assigned.class: "condition met"
- compound: "COc1cc(-c2nc(CCl)cs2)cc(OC)c1OC [A10]"
  assigned.class: "condition not met"
